Molecular target: recombinant human TGF-β1 (R&D systems) (human, UniProt P01137 279-390)
Sequence (P01137 279-390 limits assumed): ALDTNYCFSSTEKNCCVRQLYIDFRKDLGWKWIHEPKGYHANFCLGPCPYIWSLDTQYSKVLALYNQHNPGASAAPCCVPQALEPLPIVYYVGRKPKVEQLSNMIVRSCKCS
Assay: cell-based or functional assay
Starred links: 1 amine or outer side, 2 acyl side, 3 side chain; linkers in the order of their positions; H or OH if unused. Positions of bridges follow the written chain, without caps; N, C: chain ends. Non-standard residues stand in square brackets, D forms with d. No end group written: not given here. KCOpipzaa = N6-(4-(carboxymethyl)piperazine-1-carbonyl)-L-lysine, O=C(NCCCC[C@H](N[*:1])C(=O)[*:2])N1CCN(CC(=O)[*:3])CC1; Trp(6-aza) = N[C@@H](Cc1c[nH]c2cnccc12)C(=O)O; Trp(7-aza) = N[C@@H](Cc1c[nH]c2ncccc12)C(=O)O; 1Nal = N[C@@H](Cc1cccc2ccccc12)C(=O)O; Gly(NCH2CH2Ph) = O=C(O)CNCCc1ccccc1; 4Pal = N[C@@H](Cc1ccncc1)C(=O)O
Measured Attribute: SBE reporter % inhibition, peptide 0.75 nM (%)

Binder: {CH2CO}-F[Trp(6-aza)]VVNVYDD[Gly(NCH2CH2Ph)]V[1Nal]YHVCG (thioether N-16, cyclic peptide; C-terminal G is a linker) [TGFb1_004]
Observed Result: 0.9
//
Binder: {CH2CO}-F[Trp(7-aza)]VVNVYDD[Gly(NCH2CH2Ph)]V[1Nal]YHVCG (thioether N-16; not fully specified (C-terminus), cyclic peptide; C-terminal G is a linker) [TGFb1_005]
Observed Result: 47
//
Binder: {CH2CO}-F[1Nal]VVNVYDD[Gly(NCH2CH2Ph)]V[1Nal]YHVCG (thioether N-16, cyclic peptide; C-terminal G is a linker) [TGFb1_001]
Observed Result: 69.7
//
Binder: {CH2CO}-F[1Nal]VVNV[4Pal]DD[Gly(NCH2CH2Ph)]V[1Nal]YHVCG (thioether N-16; not fully specified (C-terminus), cyclic peptide; C-terminal G is a linker) [TGFb1_006]
Observed Result: 69.3
//
Binder: {CH2CO}-F[1Nal]V[KCOpipzaa]NV[4Pal]DD[Gly(NCH2CH2Ph)]V[1Nal]YHVCG (thioether N-16; not fully specified (C-terminus), cyclic peptide; C-terminal G is a linker) [TGFb1_010]
Observed Result: 63.8
//
Binder: {CH2CO}-F[1Nal]VKNV[4Pal]DD[Gly(NCH2CH2Ph)]V[1Nal]YHVCG (thioether N-16; not fully specified (C-terminus), cyclic peptide; C-terminal G is a linker) [TGFb1_007]
Observed Result: 37.5
//
Binder: {CH2CO}-FWVVNVYDD[Gly(NCH2CH2Ph)]V[1Nal]YHVCG (thioether N-16, cyclic peptide; C-terminal G is a linker) [TGFb1_003]
Observed Result: 65.2
//
Binder: {CH2CO}-F[1Nal]VVNV[4Pal]DD[Gly(NCH2CH2Ph)]V[1Nal][4Pal]HVCG (thioether N-16; not fully specified (C-terminus), cyclic peptide; C-terminal G is a linker) [TGFb1_009]
Observed Result: 53
//
Binder: {CH2CO}-F[Trp(7-aza)]VVNV[4Pal]DD[Gly(NCH2CH2Ph)]V[1Nal]YHVCG (thioether N-16; not fully specified (C-terminus), cyclic peptide; C-terminal G is a linker) [TGFb1_008]
Observed Result: 56.8
